System: 786-0 renal
Method notes: NCI tumour cell line growth inhibition, 48 h
Catalogue of TGI values

Some solved entries appear below for comparison.
C1=C\COCc2cc(ccc2OCCN2CCCC2)Nc2nccc(n2)-c2cccc(c2)COC/1
5.18 µM
COc1cc2c(c(OC)c1OC)-c1ncc3cc4c(cc3c1C2)OCO4
> 100 µM
Cc1cc(C)c(C(=O)c2nnc3ccccc3c2N)c(C)c1
32.2 µM
COC(=O)CC1C=CC(C)(OC)OO1 (stereo not given)
> 100 µM

Then this molecule:
Data request: Given the molecule Cc1cc(C)c(/C=C2\C(=O)Nc3ccc(NC(=O)CCCCCCC(=O)NO)cc32)[nH]1 , what is its reported TGI?
Data returned: > 100 µM

----------
Test system: HT29 colon
Method notes: NCI tumour cell line growth inhibition, 48 h
Measured attribute: TGI (µM)
Your answer is read as µM, so omit the unit and give the number.

Some solved entries appear below for comparison.
O=[N+]([O-])/C(C(Cl)=C(Cl)Cl)=C(/Nc1ccccc1)SCc1ccccc1
66.1
O=C(O/C=C\OC1CCCC1(c1ccccc1)c1ccccc1)c1ccccc1 (configuration not stated)
13.8

Then this compound:
Data request: Given the compound CCN1CCC(O)(/C=C/c2ccc(C)cc2)C(C(=O)/C=C/c2ccc(C)cc2)C1 (configuration not stated) , what is its reported TGI?
Data returned: 6.89

----------
Catalogue of TGI values
Tested on: HL-60(TB) leukemia
Method notes: NCI tumour cell line growth inhibition, 48 h

CCOP(=O)(OCC)OC1C=CC2CCC1C2 (stereo not given)
> 100 µM
Cc1cc(NS(=O)(=O)c2ccc(Nc3c4ccccc4nc4c(C(=O)N5CCN(CCO)CC5)ccc(Cl)c34)cc2)no1
> 100 µM
CC1=C(C(=O)Nc2ccc(Cl)c(Cl)c2)C(c2cccc(Oc3ccccc3)c2)NC(=O)N1 (stereo not given)
> 50 µM

Then this compound:
Data request: Given the compound CCOC(=O)c1nc2ccc(C(F)(F)F)cc2[nH]c1=O , what is its reported TGI?
Data returned: > 100 µM

----------
Catalogue of TGI values
Tested on: A498 renal
Method notes: NCI tumour cell line growth inhibition, 48 h

Cc1cc(C)c(C(=O)c2nnc3ccccc3c2N)c(C)c1
> 100 µM
CCOC(=O)/C=C/[C@H](O[Si](CC)(CC)CC)C(C)(C)C
> 100 µM
COc1cc2c(OC)cc1CSCc1sc(C)c(c1Br)CSC2
> 100 µM

Data request: Given the compound N#CC1=C(Nc2ccccc2)SC=C(c2ccccc2)NC1=NCc1ccccc1 , what is its reported TGI?
Data returned: > 100 µM

Data request: Given the compound COc1cc(N=Nc2cccc(S(=O)(=O)O)c2)ccc1N=Nc1ccc(/C=C/c2ccc(-n3on3-c3ccc(/C=C/c4ccc(N=Nc5ccc(N=Nc6cccc(S(=O)(=O)O)c6)cc5OC)cc4S(=O)(=O)O)c(S(=O)(=O)O)c3)cc2S(=O)(=O)O)c(S(=O)(=O)O)c1 , what is its reported TGI?
Data returned: > 100 µM

Data request: Given the compound O=C1NC(=NCCc2cccc(Cl)c2)S/C1=C\c1ccc2ncccc2c1 , what is its reported TGI?
Data returned: > 25 µM

Data request: Given the compound CSc1ccc2c(c1)C(=O)c1c-2n(CCCBr)c(=O)c2cc([N+](=O)[O-])ccc12 , what is its reported TGI?
Data returned: 96.4 µM

Data request: Given the compound COc1ccc(/C(Cl)=C(\C=O)c2ccc(OC)c(OC)c2)cc1 , what is its reported TGI?
Data returned: 98.8 µM

Data request: Given the compound COC(=O)c1c(C#N)[nH]c(-c2ccsc2)c1C(=O)OC , what is its reported TGI?
Data returned: > 100 µM

Data request: Given the compound CCOP(=O)(COCCn1ncc(=O)[nH]c1=O)OCC , what is its reported TGI?
Data returned: > 100 µM

Data request: Given the compound CC(=O)O/C(=C1\C[C@H]2[C@@H]3CC=C4C[C@@H](OC(C)=O)CC[C@]4(C)[C@H]3CC[C@]2(C)C1=O)C(F)(F)F , what is its reported TGI?
Data returned: 45.1 µM

Data request: Given the compound COc1ccc(NC(=O)N(C)CC2(O)CCC(C(C)(C)C)CC2)cc1 (stereo not drawn) , what is its reported TGI?
Data returned: > 100 µM

Data request: Given the compound CC(C)N(C(=O)C12C3C4C1(I)C1C2C3(I)C41C(=O)N(C(C)C)C(C)C)C(C)C (stereo not drawn) , what is its reported TGI?
Data returned: > 100 µM
